Cited source for all entries: the NIST ThermoML archive (doi:10.1007/s10765-006-0047-0)

Answer each item with its documented speed of sound.
Conditions: 298.15 K; 101.33 kPa; Liquid; Sing-around technique in a fixed-path interferometer
Your answer should be a plain number; it is taken to be in m/s.

// `CCCCOCCOCCOCCCC` : speed of sound value = 1270.1

Memo: `CCCN` , reported speed of sound: 1215.2

speed of sound in this record for COCCOCCOCCO [2-[2-(2-methoxyethoxy)ethoxy]ethanol] : 1459

Entry `CCOCCOCCOCC` — recorded speed of sound = 1241.9

In plain terms, `COCCOCCO` has a documented speed of sound of 1417.2

Reported speed of sound of `CCCCOCCOCCO` : 1358.9

Recorded speed of sound (compound `COCCO` ): 1343.3

# speed of sound (compound: `CCOCCOCCO` ) is 1377.3

====

Conditions: 298.15 K; 101.33 kPa; Liquid; Pycnometric method
# label = Criterion met if mass density < 900 kg/m3 else Criterion not met

Ask | Threshold test, mass density < 900 kg/m3: `COCCOCCO`
Reply | Criterion not met

Ask | Regarding `CCCCOCCOCCO` , kindly confirm whether its mass density is beneath 900 kg/m3.
Reply | Criterion not met

Ask | Hello, I'm reviewing records and need to know if mass density of COCCOCCOCCO [2-[2-(2-methoxyethoxy)ethoxy]ethanol] is below 900 kg/m3. Could you check?
Reply | Criterion not met

Ask | In the record for `COCCO` , is mass density less than 900 kg/m3?
Reply | Criterion not met

Ask | Problem: For the compound `CCOCCOCCO` , is mass density under 900 kg/m3?
Reply | Criterion not met

Ask | Report whether reported mass density is lower than 900 kg/m3 (strictly) for `CCCN`
Reply | Criterion met
